Answer each item with its documented viability at 28.5 h, 10 µM.
protocol-text: in vitro
experimental-context: human, hela cells, % viability
Answers are plain numbers, in %.

Some compounds with recorded viability at 28.5 h, 10 µM:
>  <compound>
C[S+]([O-])CC(O)(c1ccc(F)cc1)C1CC1 (stereo not shown) [CBK025846]

>  <value-observed>
114

$$$$
>  <compound>
CN1C(=O)COc2ccccc2C/C=C/C[C@@H]2[C@H]1CCCN2C(=O)CNS(C)(=O)=O [CBK292079]

>  <value-observed>
87.7

$$$$
>  <compound>
CC1=NN(c2nc(-c3cccc([N+](=O)[O-])c3)cs2)C(=O)C1/N=N/c1ccc(C)c(Br)c1 (stereo not shown) [CBK262430]

>  <value-observed>
104

$$$$

Now let's try a different one.
Sure, the documented viability at 28.5 h, 10 µM for CCC(CC)C(=O)N1C[C@H]2CCc3cn(CCNC(C)=O)nc3[C@H]2C1 [CBK282183] is 104
